- SYSTEM: CD28 (human) (UniProt P10747)
- TEST_PROTOCOL: flow cytometry, transfected Expi293F cells
REPORTED_METRIC: MFI
Could you respond with only the numeric value?

Known results for binders:
{"BINDER": "CD80 Y53C/L85R/K89N/A91T/F92P/K93V/R94L/I118V/T120S/I127T/T130A/K169E ECD-Fc (Fc fusion) VIHVTKEVKEVATLSCGHNVSVEELAQTRIYWQKEKKMVLTMMSGDMNIWPECKNRTIFDITNNLSIVILALRPSDEGTYECVVRKYENDTPVLEHLAEVTLSVKADFPTPSISDFEVPSSNIRRITCSASGGFPEPHLSWLENGEELNAINTTVSQDPETELYAVSSELDFNMTTNHSFMCLIKYGHLRVNQTFNWNTTKQEHFPDN", "MFI": 1400}
{"BINDER": "CD80 R29D/Y31L/Q33H/K36G/M38I/T41A/M43R/M47T/L70Q/E81V/K89N/A91T/F92P/K93V/R94L/I118V/T120S/I127T/T130A ECD-Fc (Fc fusion) VIHVTKEVKEVATLSCGHNVSVEELAQTDILWHKEGKIVLAMRSGDTNIWPEYKNRTIFDITNNLSIVIQALRPSDEGTYVCVVLKYENDTPVLEHLAEVTLSVKADFPTPSISDFEVPSSNIRRITCSASGGFPEPHLSWLENGEELNAINTTVSQDPETELYAVSSKLDFNMTTNHSFMCLIKYGHLRVNQTFNWNTTKQEHFPDN", "MFI": 2110}
{"BINDER": "CD80 R29D/Y31L/Q33H/K36G/M38I/T41A/M43R/M47T/E81V/L85R/K89N/A91T/F92P/K93V/R94L/I118V/T120S/T130A/K169E/M174T ECD-Fc (Fc fusion) VIHVTKEVKEVATLSCGHNVSVEELAQTDILWHKEGKIVLAMRSGDTNIWPEYKNRTIFDITNNLSIVILALRPSDEGTYVCVVRKYENDTPVLEHLAEVTLSVKADFPTPSISDFEVPSSNIRRIICSASGGFPEPHLSWLENGEELNAINTTVSQDPETELYAVSSELDFNTTTNHSFMCLIKYGHLRVNQTFNWNTTKQEHFPDN", "MFI": 2740}
{"BINDER": "CD80 C16S/H18L/R29D/Y31L/Q33H/K36G/M38I/T41A/M43R/M47T/E81V/L85R/K89N/A91T/F92P/K93V/R94L/T110A/I118V/H188D ECD-Fc (Fc fusion) VIHVTKEVKEVATLSSGLNVSVEELAQTDILWHKEGKIVLAMRSGDTNIWPEYKNRTIFDITNNLSIVILALRPSDEGTYVCVVRKYENDTPVLEHLAEVTLSVKADFPAPSISDFEVPTSNIRRIICSTSGGFPEPHLSWLENGEELNAINTTVSQDPETELYAVSSKLDFNMTTNHSFMCLIKYGDLRVNQTFNWNTTKQEHFPDN", "MFI": 1210}
{"BINDER": "CD80 H18L/R29D/Y31L/Q33H/K36G/M38I/T41A/M43R/M47T/E81V/L85R/K89N/A91T/F92P/K93V/R94L/F116S/T130A/H188D ECD-Fc (Fc fusion) VIHVTKEVKEVATLSCGLNVSVEELAQTDILWHKEGKIVLAMRSGDTNIWPEYKNRTIFDITNNLSIVILALRPSDEGTYVCVVRKYENDTPVLEHLAEVTLSVKADFPTPSISDSEIPTSNIRRIICSASGGFPEPHLSWLENGEELNAINTTVSQDPETELYAVSSKLDFNMTTNHSFMCLIKYGDLRVNQTFNWNTTKQEHFPDN", "MFI": 1240}
{"BINDER": "CD80 Y53C/L70Q/D90G/T130A/N149D/N152T/H188D ECD-Fc (Fc fusion) VIHVTKEVKEVATLSCGHNVSVEELAQTRIYWQKEKKMVLTMMSGDMNIWPECKNRTIFDITNNLSIVIQALRPSDEGTYECVVLKYEKGAFKREHLAEVTLSVKADFPTPSISDFEIPTSNIRRIICSASGGFPEPHLSWLENGEELDAITTTVSQDPETELYAVSSKLDFNMTTNHSFMCLIKYGDLRVNQTFNWNTTKQEHFPDN", "MFI": 1990}

Moving on to the next binder.
Inquiry: Suppose we examine the binder CD80 R29D/Y31L/Q33H/K36G/M38I/T41A/M43R/M47T/L70Q/D76G/A91G/S103L/I118V/T120S/I127T/T130A ECD-Fc (Fc fusion) VIHVTKEVKEVATLSCGHNVSVEELAQTDILWHKEGKIVLAMRSGDTNIWPEYKNRTIFDITNNLSIVIQALRPSGEGTYECVVLKYEKDGFKREHLAEVTLLVKADFPTPSISDFEVPSSNIRRITCSASGGFPEPHLSWLENGEELNAINTTVSQDPETELYAVSSKLDFNMTTNHSFMCLIKYGHLRVNQTFNWNTTKQEHFPDN ; what MFI value has been reported?
Reply text: 1910
